Procedure summary: yeast display, Sf9 membrane polyspecificity reagent, FACS + sequencing; frameworks hold sequencing errors
Measurement name: polyreactivity (PSR sort gate)

Worked cases, answers included:
QVQLVESGGVLDQARGSLRLSCAASGRIFGYNAMGWYRQAPGKERELVAAISWGGGRTYYADSVKGRFTISRDNAKNTVYLQMNSLKPEDTAVYYCNALYVGYYDSMGYWGQGTQVTVSS: high polyreactivity
QVQLVESGGGLVQAGCSLRLSCAASGRTFPYYAMGWYRQAPGKERELVARIRSDGSTNYADSVKGRFTISRDNAKNTVYLQMNSLKPEDTAVYYCTADVGFEPPWYDWSWDNEYWGQGTQVSVSS: low polyreactivity
QVQLVESGGGLVQAGGSLRLSCAASGFTFTWNTMGWYRQAPGKERELVAAITTGGRTYYADSVKGRFTISRDNAKNTVYLQMNSLKPEDTAVYYCNKLFIAKYDSWGQGTQVTVSS: high polyreactivity
QVQLVESGGGLVQAGGSLRLSCAASGFTFVYYAMGWYRQAPGKERELVAAISQSGSSTYYADSVKGRFTISRDNPKNTVYLQMNSLKPEDTAVYYCNVYYASRPTYDFGYWGQVTQVTVSS: high polyreactivity
QVHLVESGGGLVQAGGSLRLSCAASGRILNWNAMGWYRQAPGKDREFVAAIRTSGGDSTSYADSVKGRFTISRDNAKNTVYLQMTSLKPEDTAVFDCAKTVWWYYRYPFDYWGQGTQVTVSS: low polyreactivity
QVQLVESVGGLVQAGGSLRLSCAASGSIFYPNAMGLYRQAPGKERELVAAISSSGGTNYADSVKGRFTISRDNAKNTVYLQMNSLKPEDTAVYYCNARDKVRYRYSRMDYWGQGTQVTVSS: low polyreactivity

Request: Give the measured polyreactivity (PSR sort gate) for QVQHVESGGGLVQAGGSLRLSCAASGIIITGNAMGWYRQAPGKERELVAAISTSGGRTYYADSVKGRFTISRDNAKNTVYLQMNSLKPEDTAVYYCAADDLSGTELYYWGQGTQVTVSS
Result: high polyreactivity

Request: # return recorded polyreactivity (PSR sort gate) for input QVQLVESGGGLVQAGGSLRLSCAASGAIFVFYVMGWYRQAPGKERELVAAISNSGSSTYYADSVKGRFTISRDNAKNTVYLQMNSLKPEDTAVYYCAAEYKIPVGFDYWGQGTQVTVSS
Result: low polyreactivity

Request: Answer with the recorded polyreactivity (PSR sort gate) of QVQLVESGGGLVQAGGSLRLSCAASGRTFWFYGMGWYREAAGKEREFVARISGSGGSTYYADSVKGRFTISRDNAKNTVYLQMNSLKPEDTAVYYCAKDNRYPYPSGLDYWGQGTQVTVSS only.
Result: high polyreactivity
